Where these numbers come from: PubChem BioAssay

Molecular target: Concanavalin-A (Canavalia ensiformis)
Test: ConA small-molecule binders, primary screen, artefact control for SMM control protein annotation, biochemical, small-molecule microarray, Alexa647 label, 635 nm (AID 1127);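 note: z combines 667 nm emission intensity with signal-to-noise across three replicate slides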
Conditions: ConA-A647 binding fluorescence, higher = more signal
Could you please report measured composite z-score for the items listed next?
The response must contain the number and no unit.

Report composite z-score, nothing else, for this molecule: `[N-]=[N+]=NCc1ccccc1[C@@H]1OC(c2ccc(OCCCO)cc2)=N[C@]1(CCS(=O)(=O)c1ccccc1)C(=O)NCCN1CCOCC1`
1.1

Provide only the value of recorded composite z-score for `O=C(O)[C@@]1(CCS(=O)(=O)c2ccccc2)COC(c2ccc(OCCCO)cc2)=N1`
-0.0647

Give the measured composite z-score for `COCCn1c(C(=O)N2CCCC2)cc2c1C[C@H]1CN(C(=O)c3ccccc3)[C@@](Cc3ccc(F)cc3)(C(=O)OC)[C@@H]21`
1

Using known records, supply composite z-score for `COC(=O)[C@@]1(Cc2ccc(OC)cc2)[C@H]2c3cc(C(=O)N(C)C)n(Cc4cccc5ccccc45)c3C[C@H]2CN1C(=O)c1ccccc1`
0.976

Please give the documented composite z-score of `Cc1ccc(S[C@]2(C(=O)NC3CC3)CC(=O)N(C3Cc4ccccc4C3)[C@@H]2c2ccc(CO)cc2)cc1`
0.356

// fetch composite z-score given entry CCC(CC)C(O)C1C=CC2C(=O)N(C)C(=O)C2N1Nc1ccccc1 (configuration not stated)
1.2

Given `COCCOC(=O)N1C(=O)[C@@]2(c3cc(C#CC4=CCCCC4)ccc31)[C@H](C(=O)Nc1nc3ccccc3s1)[C@H]1C(=O)O[C@H](c3ccccc3)[C@H](c3ccccc3)N1[C@@H]2c1ccccc1OCCO` , respond with its composite z-score.
1.14

====

Can you tell me composite z-score for the items I'm about to list?
Experiment: binders of probe aFGF10 on microarray, primary screen, stem cell growth factor project, biochemical, small-molecule microarray, fluorescence 635/667 (AID 1071);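 note: score merges 667 nm spot intensity and signal to noise from triplicate slides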
Settings: higher = more signal
The answer should be a number; do not append a unit.

Identify the reported composite z-score for the following entry. `C=CC[C@@]1(C(=O)NCc2ccccc2)N=C(c2ccc(OCCCO)cc2)O[C@@H]1c1ccccc1N=[N+]=[N-]`
0.942

Determine its reported composite z-score: C#CCN(Cc1ccccc1Br)C(/C=C/c1ccccc1)CO (configuration not stated)
0.0126

Give the value of composite z-score reported for the following: `[N-]=[N+]=NCc1ccccc1C[C@]1(C(=O)O)N=C(c2ccc(OCCCO)cc2)O[C@H]1c1ccccc1N=[N+]=[N-]`
0.833

Please list composite z-score recorded for the compound `COCCOC(=O)N1C(=O)[C@@]2(c3cc(C#CC4=CCCCC4)ccc31)[C@H](C(=O)Nc1nc3ccccc3s1)[C@H]1C(=O)O[C@H](c3ccccc3)[C@H](c3ccccc3)N1[C@@H]2c1ccccc1OCCO`
0.77

In one line, give reported composite z-score of the entry `O=C1O[C@H](c2ccccc2)[C@H](c2ccccc2)N2[C@H]1[C@@H](C(=O)Nc1nc3ccccc3s1)[C@]1(C(=O)Nc3ccc(C#CC4(O)CCCCCC4)cc31)[C@H]2c1ccc(OCCO)cc1` .
0.805

Given the compound `CCCC[C@@H]1C[C@H]1[C@@H](NC(=O)c1ccco1)c1ccc(C(=O)OC)cc1` , write its reported composite z-score.
0.286

State its composite z-score: COc1ccc(C(O)C2C=CC3C(=O)NC(=O)C3N2Nc2ccccn2)c2ccccc12 (configuration not stated)
0.246
